Origin of the recorded values: patent US20200270309A1

- protocol_summary: Half-lives and pharmacokinetic parameters of polypeptides vs HM-1
- condition_description: in vivo
Peptide text beside a SMILES is read from it. * marks the point of attachment. X39 = O=C1C=CC(=O)N1c1ccc(CCCCCCCCCCC(=O)*)cc1; X24 = O=C1C=CC(=O)N1CCOCCOCCOCCOCCOCCC(=O)*; X55 = O=C1C=CC(=O)N1c1ccccc1CCCCCCCCC(=O)*; X10 = O=C1C=CC(=O)N1CCOCCOCCOCCOCCCC(=O)*; X34 = O=C1C=CC(=O)N1CCOCCOCCOCCCCCC(=O)*; X17 = O=C1C=CC(=O)N1CCOCCOCCCCCCCC(=O)*; X49 = O=C1C=CC(=O)N1c1ccccc1CCCCCC(=O)*; X13 = O=C1C=CC(=O)N1CCOCCCCCC(=O)*; X12 = O=C1C=CC(=O)N1CCOCCCCC(=O)*
Listed here: items and their measured clearance.
State the answer as a number, implicitly in mL/min/kg.

Problem: For the compound C[C@H](NC(=O)CNC(=O)[C@H](CCCNC(=N)N)NC(=O)CCCCCCCOCCOCCN1C(=O)C=CC1=O)C(=O)N[C@@H](CC(=O)O)C(=O)N[C@@H](CCCNC(=N)N)C(=O)N[C@@H](C)C(=O)NCC(=O)NCC(=O)NCC(=O)NCC(=O)N[C@@H](CCCNC(=N)N)C(=O)NCC(=O)N[C@@H](CC(=O)O)C(=O)O [X62] (X17-RGADRAGGGGRGD-OH) , what clearance is on record?
Solution: 0.625

Problem: // query clearance value for entry C[C@H](NC(=O)CNC(=O)[C@H](CCCNC(=N)N)NC(=O)CCCCCOCCOCCOCCN1C(=O)C=CC1=O)C(=O)N[C@@H](CC(=O)O)C(=O)N[C@@H](CCCNC(=N)N)C(=O)N[C@@H](C)C(=O)NCC(=O)NCC(=O)NCC(=O)NCC(=O)N[C@@H](CCCNC(=N)N)C(=O)NCC(=O)N[C@@H](CC(=O)O)C(=O)O [X67] (X34-RGADRAGGGGRGD-OH)
Solution: 0.528

Problem: If you can, please state the reported clearance value of C[C@H](NC(=O)CNC(=O)[C@H](CCCNC(=N)N)NC(=O)CCCCCOCCN1C(=O)C=CC1=O)C(=O)N[C@@H](CC(=O)O)C(=O)N[C@@H](CCCNC(=N)N)C(=O)N[C@@H](C)C(=O)NCC(=O)NCC(=O)NCC(=O)NCC(=O)N[C@@H](CCCNC(=N)N)C(=O)NCC(=O)N[C@@H](CC(=O)O)C(=O)O [X53] (X13-RGADRAGGGGRGD-OH) .
Solution: 0.537

Problem: Endpoint output: clearance of C[C@H](NC(=O)CNC(=O)[C@H](CCCNC(=N)N)NC(=O)CCOCCOCCOCCOCCOCCN1C(=O)C=CC1=O)C(=O)N[C@@H](CC(=O)O)C(=O)N[C@@H](CCCNC(=N)N)C(=O)N[C@@H](C)C(=O)NCC(=O)NCC(=O)NCC(=O)NCC(=O)N[C@@H](CCCNC(=N)N)C(=O)NCC(=O)N[C@@H](CC(=O)O)C(=O)O [X78] (X24-RGADRAGGGGRGD-OH) . Value?
Solution: 0.558

Problem: Please look up its clearance: C[C@H](NC(=O)CNC(=O)[C@H](CCCNC(=N)N)NC(=O)CCCOCCOCCOCCOCCN1C(=O)C=CC1=O)C(=O)N[C@@H](CC(=O)O)C(=O)N[C@@H](CCCNC(=N)N)C(=O)N[C@@H](C)C(=O)NCC(=O)NCC(=O)NCC(=O)NCC(=O)N[C@@H](CCCNC(=N)N)C(=O)NCC(=O)N[C@@H](CC(=O)O)C(=O)O [X72] (X10-RGADRAGGGGRGD-OH)
Solution: 0.493

Problem: Which clearance value belongs to C[C@H](NC(=O)CNC(=O)[C@H](CCCNC(=N)N)NC(=O)CCCCCCCCCCc1ccc(N2C(=O)C=CC2=O)cc1)C(=O)N[C@@H](CC(=O)O)C(=O)N[C@@H](CCCNC(=N)N)C(=O)N[C@@H](C)C(=O)NCC(=O)NCC(=O)NCC(=O)NCC(=O)N[C@@H](CCCNC(=N)N)C(=O)NCC(=O)N[C@@H](CC(=O)O)C(=O)O [X46] (X39-RGADRAGGGGRGD-OH) ?
Solution: 0.527

Problem: Report clearance for C[C@H](NC(=O)CNC(=O)[C@H](CCCNC(=N)N)NC(=O)CCCCCc1ccccc1N1C(=O)C=CC1=O)C(=O)N[C@@H](CC(=O)O)C(=O)N[C@@H](CCCNC(=N)N)C(=O)N[C@@H](C)C(=O)NCC(=O)NCC(=O)NCC(=O)NCC(=O)N[C@@H](CCCNC(=N)N)C(=O)NCC(=O)N[C@@H](CC(=O)O)C(=O)O [X17] (X49-RGADRAGGGGRGD-OH) please.
Solution: 0.555

Problem: Field request: clearance | item: C[C@H](NC(=O)CNC(=O)[C@H](CCCNC(=N)N)NC(=O)CCCCOCCN1C(=O)C=CC1=O)C(=O)N[C@@H](CC(=O)O)C(=O)N[C@@H](CCCNC(=N)N)C(=O)N[C@@H](C)C(=O)NCC(=O)NCC(=O)NCC(=O)NCC(=O)N[C@@H](CCCNC(=N)N)C(=O)NCC(=O)N[C@@H](CC(=O)O)C(=O)O [X52] (X12-RGADRAGGGGRGD-OH)
Solution: 0.597

Problem: Value lookup for clearance; key = C[C@H](NC(=O)CNC(=O)[C@H](CCCNC(=N)N)NC(=O)CCCCCCCCc1ccccc1N1C(=O)C=CC1=O)C(=O)N[C@@H](CC(=O)O)C(=O)N[C@@H](CCCNC(=N)N)C(=O)N[C@@H](C)C(=O)NCC(=O)NCC(=O)NCC(=O)NCC(=O)N[C@@H](CCCNC(=N)N)C(=O)NCC(=O)N[C@@H](CC(=O)O)C(=O)O [X20] (X55-RGADRAGGGGRGD-OH)
Solution: 0.523
